- Measurement Target: T1, GRIP1_2, Q9Y3R0
- T1 sequence (Q9Y3R0 145-248, limits assumed, looked up): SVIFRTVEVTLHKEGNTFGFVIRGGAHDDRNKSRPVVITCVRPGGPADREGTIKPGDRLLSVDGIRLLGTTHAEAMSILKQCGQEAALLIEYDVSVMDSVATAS
- Assay Details: holdup assay
- Design: key: below the threshold = too weak to quantify, mostly under pKd 3.1 to 4
- Condition Details: plain residues with an end cap or a label only (N-terminal biotin on a linker: ado-ado)

{"Binder": "QSYPSKHDYV [CLDN18, P56856]", "pKd": 3.58}
{"Binder": "ELSATVTTDC [TRIP6, Q15654]", "pKd": "below the threshold"}
{"Binder": "EDPRVEVTQF [SLC22A9, Q8IVM8]", "pKd": "below the threshold"}
